Cited source for all entries: patent US20160376333A1

Exercise: for every item that follows, state its recorded pKd.
target: T1, human Bcl-XL a.a. 1-205 with C-terminal avi-6his tag (human, UniProt Q07817 2-206); test: BLI, biotinylated target on streptavidin sensor, range of analyte concentrations
T1 construct: also called BCL2L1
T1 sequence (Q07817 other isoform, or with tags, fused parts or gaps limits assumed): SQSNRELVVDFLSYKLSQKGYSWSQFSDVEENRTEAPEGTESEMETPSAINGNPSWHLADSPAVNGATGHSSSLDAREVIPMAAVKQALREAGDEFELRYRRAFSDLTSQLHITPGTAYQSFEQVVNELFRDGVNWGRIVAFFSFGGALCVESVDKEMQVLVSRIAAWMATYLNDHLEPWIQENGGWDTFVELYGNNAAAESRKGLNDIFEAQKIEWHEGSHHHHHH
Scale: negative log10 of molar concentration, which is what pKd denotes.

**Query** Fill in: pKd of 10-CDP01 (designed binder, also called B-CDP01) ADPKKVLDKAKDQAENRVRELKQELERLYKEARKLDLTQEMRRKLEWRYIAAMLKAIGDILNAIAQAENEADKLKKAGLVNSQQLDELRRRLEELAKEAARKAHDYGREFQLKLEY is ___
**Result** 7.80

**Query** Could you do the same for F-ECM04 (designed binder) ADPKKVLDKAKDQAENRVRELKQKLEELYKEARKLDLTQEMRKKLEVAALGAVLAAHGDILNAIMQAKEEADKLKKAGLVNSQQLDELKRRLEELKEEALRKASDYGKEFHLKRRYG , please?
**Result** 6.27

**Query** W-CDP03 (designed binder) DPKKVFDEAKDRAENNVRRLKQKLEELYKEARKKDLTQEEREKLKEKYKTAMAAAALAAIGDAFNALLKARKLHKNGQVNEQQLEELARRLQELAKEAFQKAKDYANEFEYKLEY ?
**Result** 8.13

**Query** Try 2-CDP06 (designed binder) ADPKKVLDKAKDEAENRVRELKQKLEELYKEARKLDLTQEMRQELVDKARAASLQASGDIFYAILRALAEAEKLKKAGLVNSQQLDELKRRLEELAEEARRKAEKLGDEFRLKLEY next.
**Result** 4.92

**Query** Entry to check: FINDI (designed binder, also called αBFL1) ADPKKVLDKAKDQAENRVRELKQKLEELYKEARKLDLTQEKRKKLEVATLGAVLAAHGDILNAIMQAKEEADKLKKAGLVNSQQLDELKRRLEELKEEALRKASDYGNEFHLKRRY
**Result** 6.05

**Query** Do the same for MINDI (Mcl-1-inhibiting design acting intracellularly) (designed binder, also called M-CDP04; αMCL1) ADPKKVLDKAKDQAENRVRELKQVLEELYKEARKLDLTQEMRKKLIERYAAAIIRAIGDINNAIYQAKQEAEKLKKAGLVNSQQLDELLRRLDELQKEASRKANEYGREFELKLEY please
**Result** 3.40

**Query** Similarly, 10-ECM01 (designed binder) ADPKKILDKAKDQVENRVRELKQELERLYKEARKLDLTQEMRRKLHVRYIAAMLKAIAAILNAIAQAENEADKLKKAGLVNSQQLDELRRRLEELTEEAAQKAHDYGREFQLKLEYG ?
**Result** 5.11

**Query** F-CDP01 (designed binder) ADPKKVLDKAKDQAENRVRELKQKLEELYKEARKLDLTQEMRKKLQYAAIGAMLAAIGDILNAIMQAKQEADKLKKAGLVNSQQLDELKRRLEELKEEALRKAHDYGSEFYLKLEY , same question.
**Result** 8.05

**Query** Follow-up entry: WINDI (designed binder, also called W-ECM01; αBCLW) DPKKVFDELKDRAENNVRRLKQKLEELYKEARKKDLTQEEREKLKTKYKTAMQLAALAAEGDIMNALLKARKLHKNGQVNEQQLEELARRLMELAKEAFQKAKDYANEFKYKLEY
**Result** 5.79

**Query** Ok, now XINDI (designed binder, also called X-ECM04; αBCLXL) ADPKKVLDKAKDRAENVVRKLKKELEELYKEARKLDLTQEMRDRIRRTAIAARFQAHGDIFHAIKHAKEEARKLKKAGLVNSQQLDELKRRLRELDEEAEQRAEKLGKEFRLKLEY
**Result** 8.25

**Query** What would you report for 2-INDI (designed binder, also called αBCL2) ADPKKVLDKAKDEAENRVRELKQRLEELYKEARKLDLTQEMRQELVDKARAASLQANGDIFYAILRALAEAEKLKKAGLVNSQQLDELKRRLEELAEEARRKAEKLRDEFRLKLEY ?
**Result** 5.46
